Where do the numbers come from? From paper PMC5927802.

assay: Plasma pharmacokinetics, Phase I open‐label two‐group fixed‐sequence drug‐drug interaction study; conditions: human, in vivo, 800 mg, AUC0‐24 h, Group 1 Day 3, AL‐335 alone; mean (SD)
value_type: AUC (ng·h/mL)

[[record]]
molecular_string = "CC(C)OC(=O)[C@H](C)N[P@](=O)(OC[C@@]1(F)O[C@@H](n2ccc(=O)[nH]c2=O)[C@](C)(O)[C@@H]1O)Oc1ccccc1"
units = "ng·h/mL"
experimental_result = 295


---

assay: Plasma pharmacokinetics, Phase I open‐label two‐group fixed‐sequence drug‐drug interaction study; conditions: human, plasma, oral, Cmax, Group 1 Day 23, SMV + AL‐335 + ODV; mean (SD)
value_type: Cmax (ng/mL)

[[record]]
molecular_string = "COc1ccc2c(O[C@@H]3C[C@H]4C(=O)N[C@]5(C(=O)NS(=O)(=O)C6CC6)C[C@H]5/C=C\\CCCCN(C)C(=O)[C@@H]4C3)cc(-c3nc(C(C)C)cs3)nc2c1C"
units = "ng/mL"
experimental_result = 4740

